Target: T1, Glycoprotein VI extracellular domain (Gln21-Lys267) (Homo sapiens, UniProt Q9HCN6 SEQ:1-247)
T1 chain: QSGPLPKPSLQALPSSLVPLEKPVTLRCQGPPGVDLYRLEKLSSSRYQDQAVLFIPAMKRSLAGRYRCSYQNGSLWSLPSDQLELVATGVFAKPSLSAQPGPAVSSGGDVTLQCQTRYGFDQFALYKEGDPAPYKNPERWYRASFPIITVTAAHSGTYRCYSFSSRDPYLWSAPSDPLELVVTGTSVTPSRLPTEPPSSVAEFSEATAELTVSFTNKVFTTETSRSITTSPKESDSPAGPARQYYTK
Test: filter; text p359 names it EF-3 T2mut10
Details: tags: C-terminal His6; R&D Systems 3627-GP; label: 5'-32P
Reported property: Kd

- GGGAGGACGGCGAUCACACGCCUGGCAUAAGCCUCCC (ssRNA, 2'-F C and U; 2'-OH A and G) [EF-3 T5 mut10]: 15.5 nM
